Where do the numbers come from? From paper PMC5368959.

Molecular target: OAT3 (Mus musculus, UniProt O88909)
Sequence (O88909 whole entry): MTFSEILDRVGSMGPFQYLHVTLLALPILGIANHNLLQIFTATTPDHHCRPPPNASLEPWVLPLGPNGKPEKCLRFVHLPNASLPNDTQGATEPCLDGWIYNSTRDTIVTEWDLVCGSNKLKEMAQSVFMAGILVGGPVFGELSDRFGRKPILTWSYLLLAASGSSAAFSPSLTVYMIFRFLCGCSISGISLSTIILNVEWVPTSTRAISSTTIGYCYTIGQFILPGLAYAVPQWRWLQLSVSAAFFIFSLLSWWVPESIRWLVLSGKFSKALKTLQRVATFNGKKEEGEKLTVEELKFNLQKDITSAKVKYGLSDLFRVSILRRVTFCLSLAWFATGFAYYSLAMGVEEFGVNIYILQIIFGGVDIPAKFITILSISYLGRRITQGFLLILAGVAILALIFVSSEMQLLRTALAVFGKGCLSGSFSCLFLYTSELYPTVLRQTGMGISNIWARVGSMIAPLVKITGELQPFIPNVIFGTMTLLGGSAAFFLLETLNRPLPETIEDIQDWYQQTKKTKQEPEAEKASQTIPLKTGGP
Test: [14C]-urate uptake by OAT3-expressing Xenopus oocytes
Settings: data not shown; read-out: IC50, OAT3-mediated urate uptake
Protocol: For uptake experiments, oocytes were washed four times with ND96 medium (pH 7.4) without pyruvate and gentamycin. The uptake of [^14C]‐urate (40 μmol/L) was performed in ND96 medium (pH 7.4) at ~25°C for 1 h.
Property measured: IC50

-- ask // map COc1ccc(C=CC(=O)Nc2ccccc2C(=O)O)cc1OC to recorded IC50 (system: OAT3 (Mus musculus, UniProt O88909))
-- reply ~15 µM
